The measured values listed here are drawn from patent US11111243B2.

- measured on: G9a (Homo sapiens)
- Sequence (Q96KQ7 1-1210): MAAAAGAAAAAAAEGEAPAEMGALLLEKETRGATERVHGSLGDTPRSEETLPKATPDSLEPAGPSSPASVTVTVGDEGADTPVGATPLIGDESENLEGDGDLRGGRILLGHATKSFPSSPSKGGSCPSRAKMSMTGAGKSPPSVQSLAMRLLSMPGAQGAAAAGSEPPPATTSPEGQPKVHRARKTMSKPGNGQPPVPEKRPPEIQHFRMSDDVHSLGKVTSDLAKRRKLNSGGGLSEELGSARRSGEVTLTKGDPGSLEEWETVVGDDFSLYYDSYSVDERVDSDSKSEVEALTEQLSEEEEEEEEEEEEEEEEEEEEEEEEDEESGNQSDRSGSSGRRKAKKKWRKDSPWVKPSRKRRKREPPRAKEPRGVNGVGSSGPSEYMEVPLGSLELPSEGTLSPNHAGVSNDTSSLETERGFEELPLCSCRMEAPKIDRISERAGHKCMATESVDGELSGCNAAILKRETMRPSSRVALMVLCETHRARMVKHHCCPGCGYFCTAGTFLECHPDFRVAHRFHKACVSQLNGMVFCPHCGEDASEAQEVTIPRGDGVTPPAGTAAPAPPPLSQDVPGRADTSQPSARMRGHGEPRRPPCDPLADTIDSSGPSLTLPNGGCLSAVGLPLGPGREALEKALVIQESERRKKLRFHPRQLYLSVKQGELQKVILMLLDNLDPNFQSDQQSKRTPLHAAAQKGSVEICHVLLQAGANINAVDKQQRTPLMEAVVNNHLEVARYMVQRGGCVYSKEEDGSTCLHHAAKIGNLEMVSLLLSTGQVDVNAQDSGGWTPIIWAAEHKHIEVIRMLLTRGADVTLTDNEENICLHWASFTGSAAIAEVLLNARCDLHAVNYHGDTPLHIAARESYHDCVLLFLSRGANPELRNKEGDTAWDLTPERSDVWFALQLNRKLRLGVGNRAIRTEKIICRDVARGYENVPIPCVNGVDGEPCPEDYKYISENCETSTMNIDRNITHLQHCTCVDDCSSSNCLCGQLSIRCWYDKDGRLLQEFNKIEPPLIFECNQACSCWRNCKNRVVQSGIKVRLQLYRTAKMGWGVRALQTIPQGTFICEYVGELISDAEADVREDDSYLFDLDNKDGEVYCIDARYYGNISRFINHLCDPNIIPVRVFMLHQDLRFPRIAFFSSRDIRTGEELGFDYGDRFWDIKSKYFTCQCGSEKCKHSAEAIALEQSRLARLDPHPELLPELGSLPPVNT
Where a name gives a salt, the structure may show the parent alone.
experimental readout: IC50 (nM)
Kindly answer with a numeric value in nM, unit omitted.

COc1cc2c(cc1OCCCN1CCCC1)[nH]c1ccnc(OC(C)C)c12 [Compound 75, trifluoroacetate]	1000
COc1cc2c(cc1OCCCN1CCCC1)[nH]c1ncccc12	280
COc1cc2c(cc1OCCCN1CCC1)[nH]c1ccncc12 [Compound 72, hydrochloride]	9.1

Asked: Please state recorded IC50 (tested on G9a (Homo sapiens)) of COc1cc2c(cc1OCCCN1CCCC1)[nH]c1ccnc(C3=CCNCC3)c12 [Compound 66, bishydrochloride]
Given back: 5.6

----------
Where a name gives a salt, the structure may show the parent alone.
The molecules below have reported pIC50 for G9a (Homo sapiens).
// pIC50 here means minus log10 of the molar concentration (mol/L)

# count of solved cases: 5
COc1cc2c(cc1OCCCN1CCCC1)[nH]c1ccnc(-c3cn[nH]c3)c12 [Compound 81, hydrochloride]	7.66
COc1cc2c(cc1OCCCN(C)C)[nH]c1ccnc(C(C)C)c12 [Compound 67, hydrochloride]	8.02
COc1c(OCCCN2CCCC2)ccc2c1[nH]c1cccnc12 [Compound 26, hydrochloride]	6.60
COc1cc2c(cc1OCCCN1CCCC1)[nH]c1c(C)cnc(N3CCCC3)c12 [Compound 89, hydrochloride]	7.92
COc1cc2c(cc1OCCCN1CCCC1)[nH]c1ccnc(-c3ccccn3)c12	6.85

Asked: Please report the recorded pIC50 for COc1cc2c(cc1OCCCN1CCCC1)[nH]c1cncnc12 .
Given back: 6.77

----------
- measured on: G9a (Homo sapiens, UniProt Q96KQ7)
- Sequence (Q96KQ7 1-1210): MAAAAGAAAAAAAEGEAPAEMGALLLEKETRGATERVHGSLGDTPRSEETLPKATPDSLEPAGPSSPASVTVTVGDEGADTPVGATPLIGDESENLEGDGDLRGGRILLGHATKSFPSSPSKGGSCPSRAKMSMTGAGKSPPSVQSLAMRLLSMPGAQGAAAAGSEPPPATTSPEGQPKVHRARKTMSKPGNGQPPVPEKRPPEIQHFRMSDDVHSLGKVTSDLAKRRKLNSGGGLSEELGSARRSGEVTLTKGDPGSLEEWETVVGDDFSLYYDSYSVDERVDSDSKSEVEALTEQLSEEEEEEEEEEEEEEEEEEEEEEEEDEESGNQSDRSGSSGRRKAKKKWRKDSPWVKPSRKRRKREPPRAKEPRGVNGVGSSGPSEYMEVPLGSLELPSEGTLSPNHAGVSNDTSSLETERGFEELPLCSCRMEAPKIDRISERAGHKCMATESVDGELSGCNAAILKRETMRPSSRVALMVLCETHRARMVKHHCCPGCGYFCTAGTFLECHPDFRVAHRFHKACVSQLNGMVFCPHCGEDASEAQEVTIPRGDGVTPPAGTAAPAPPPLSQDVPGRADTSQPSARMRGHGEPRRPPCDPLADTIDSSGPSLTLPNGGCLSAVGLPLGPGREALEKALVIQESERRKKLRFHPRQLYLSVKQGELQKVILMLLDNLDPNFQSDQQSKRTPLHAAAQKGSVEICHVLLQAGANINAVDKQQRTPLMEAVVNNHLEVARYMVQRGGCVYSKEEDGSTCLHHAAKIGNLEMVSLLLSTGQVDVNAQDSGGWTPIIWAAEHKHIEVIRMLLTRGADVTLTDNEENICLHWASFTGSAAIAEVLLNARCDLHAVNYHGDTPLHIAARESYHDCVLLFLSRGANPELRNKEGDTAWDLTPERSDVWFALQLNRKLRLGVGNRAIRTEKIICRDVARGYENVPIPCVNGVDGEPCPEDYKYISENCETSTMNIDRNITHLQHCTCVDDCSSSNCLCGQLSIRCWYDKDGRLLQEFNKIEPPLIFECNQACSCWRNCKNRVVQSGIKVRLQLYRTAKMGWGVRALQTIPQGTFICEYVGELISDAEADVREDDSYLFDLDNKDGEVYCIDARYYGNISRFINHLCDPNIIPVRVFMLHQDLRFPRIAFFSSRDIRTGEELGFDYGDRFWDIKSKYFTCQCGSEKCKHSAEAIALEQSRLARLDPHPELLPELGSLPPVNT
Structures can show the parent of a compound that is named as a salt.
IC50 reference
Kindly answer with a numeric value in nM, unit omitted.

# count of solved cases: 5
COc1cc2c(cc1OCCCN1CCCC1)[nH]c1ccnc(-c3cccnc3)c12	93
COc1cc2c(cc1OCCCN1CCCC1)[nH]c1ccnc(-c3cncs3)c12 [Compound 78, trifluoroacetate]	260
CCOCCc1nccc2[nH]c3cc(OCCCN(C)C)c(OC)cc3c12 [Compound 57, hydrochloride]	61
COc1cc2c(cc1OCCCN1CCCC1)[nH]c1ccnc(C)c12 [Compound 29, hydrochloride]	1.2
COc1cc2c(cc1OCCCN1CC[C@H](F)C1)[nH]c1ccnc(C3CC3)c12 [Compound 63, hydrochloride]	130

Asked: Please state recorded IC50 (tested on G9a (Homo sapiens, UniProt Q96KQ7)) of COc1cc2c(cc1OCCCN1CCCC1)[nH]c1cnccc12 [Compound 28, hydrochloride]
Given back: 60

Asked: Same lookup for COc1cc2c(cc1OCCCN1CCCC1)[nH]c1ccncc12 [Compound 31, hydrochloride] , please.
Given back: 3.6
